Property: chromatographic logD; scope: individual molecules
- Protocol: physchem
- Condition details: buffer, pH 7.4, logD
Lab note: jot down the number only; don't add units.

Input line: Consider the molecule CC1(c2ccc(OC(F)F)cc2)NC(=O)N(CC(=O)c2cccc(F)c2)C1=O (stereo unspecified) and give its measured chromatographic logD.
Output line: 5.13

Input line: Consider the molecule COc1ccc(C2(C)NC(=O)N(CC(=O)c3ccc(F)cc3F)C2=O)c(F)c1 (stereo unspecified) and give its measured chromatographic logD.
Output line: 5.05

Input line: Consider the molecule COc1ccc(C(=O)CN2C(=O)NC(C)(c3ccc(OC(F)F)cc3)C2=O)cc1 (stereo unspecified) and give its measured chromatographic logD.
Output line: 4.92

Input line: Consider the molecule COc1cccc(C2(C)NC(=O)N(CC(=O)c3ccc(F)cc3F)C2=O)c1 (stereo unspecified) and give its measured chromatographic logD.
Output line: 4.96

Input line: Consider the molecule CC1(c2ccc(Br)cn2)NC(=O)N(CC(=O)c2ccc(F)cc2F)C1=O (stereo unspecified) and give its measured chromatographic logD.
Output line: 4.87

With those in mind, consider the next molecule.
Input line: Consider the molecule CCC1(c2ccc(C#N)cc2)NC(=O)N(CC(=O)c2ccc(F)cc2F)C1=O (stereo unspecified) and give its measured chromatographic logD.
Output line: 4.99

###

- Protocol: physchem
- Condition details: buffer, pH 7.4, logD
Assign labels as follows, please: met for chromatographic logD below 5; not met for chromatographic logD equal to or exceeding 5.

Some solved entries appear below for comparison.
Input line: Just wondering, is chromatographic logD of CC1(c2ccc(Cl)cc2)NC(=O)N(CC(=O)c2ccc(F)cc2F)C1=O (stereo not drawn) below 5?
Output line: not met

Input line: Just wondering, is chromatographic logD of CCOc1ccc(C2(C)NC(=O)N(CC(=O)c3ccc(F)cc3F)C2=O)cc1 (stereo not drawn) below 5?
Output line: not met

Input line: Just wondering, is chromatographic logD of CCCC1(c2ccc(Br)cc2)NC(=O)N(CC(=O)c2ccc(F)cc2F)C1=O (stereo not drawn) below 5?
Output line: not met

Input line: Just wondering, is chromatographic logD of CC1(c2ccc(C#N)cc2)NC(=O)N(CC(=O)c2ccc(F)cc2F)C1=O (stereo not drawn) below 5?
Output line: met

Input line: Just wondering, is chromatographic logD of CC1(c2ccc(C#N)cc2)NC(=O)N(CC(=O)c2cccc([N+](=O)[O-])c2)C1=O (stereo not drawn) below 5?
Output line: met

Input line: Just wondering, is chromatographic logD of CC1(c2ccc(OC(F)F)cc2)NC(=O)N(CC(=O)c2ccc(Cl)s2)C1=O (stereo not drawn) below 5?
Output line: not met

***
Input line: Just wondering, is chromatographic logD of CC1(c2ccc(-n3cnnn3)cc2)NC(=O)N(CC(=O)c2ccc(F)cc2F)C1=O (stereo not drawn) below 5?
Output line: met

Input line: Just wondering, is chromatographic logD of COc1ccc(C2(C)CN(CC(=O)c3ccc(F)cc3F)C(=O)N2)cc1 (stereo in doubt; 151a) below 5?
Output line: met

Input line: Just wondering, is chromatographic logD of CC(C)C1(c2ccc(Br)cc2)NC(=O)N(CC(=O)c2ccc(F)cc2F)C1=O (stereo not drawn) below 5?
Output line: not met

Input line: Just wondering, is chromatographic logD of COc1cc(C2(C)NC(=O)N(CC(=O)c3ccc(F)cc3F)C2=O)ccc1OC(F)F (stereo not drawn) below 5?
Output line: not met

Input line: Just wondering, is chromatographic logD of CC1(c2cccc(NS(C)(=O)=O)c2)NC(=O)N(CC(=O)c2ccc(F)cc2F)C1=O (stereo not drawn) below 5?
Output line: met

Input line: Just wondering, is chromatographic logD of CC1(c2ccc(Cl)cc2)NC(=O)N(CCC(=O)c2ccc(F)cc2)C1=O (stereo not drawn) below 5?
Output line: not met

Input line: Just wondering, is chromatographic logD of COc1ccccc1C(=O)CN1C(=O)NC(C)(c2ccc(C#N)cc2)C1=O (stereo not drawn) below 5?
Output line: met
